procedureText: Compound plasma concentration, LC-MS/MS, 8 h post dose
Type: in vivo
appliedConditions: 30 mg/kg, mice below LLOQ / mice in group
assayEndpoint: Number of Mice with Plasma Concentration < LLOQ

Please review the entries below; each comes with its answer.
O=C(CCCCc1cc(Cl)c(CN2CSC[C@H]2C(=O)N2CCN(C3CC3)c3ccccc32)cc1Cl)N[C@@H](C(=O)O)[C@@H](O)[C@H](O)[C@H](O)CO
0/8
O=C(NCCCCCc1cc(Cl)c(CN2CSC[C@H]2C(=O)N2CCN(C3CC3)c3ccccc32)cc1Cl)NC(CO)(CO)CO
0/8
O=C(NCCCCCc1cc(Cl)c(CN2CSC[C@H]2C(=O)N2CCN(C3CC3)c3ccccc32)cc1Cl)N1CCN(CP(=O)(O)O)CC1
0/8
O=C(NC[C@H](O)[C@@H](O)[C@H](O)[C@H](O)CO)c1ccc(OCc2cc(Cl)c(CN3CSC[C@H]3C(=O)N3CCN(C4CC4)c4ccccc43)cc2Cl)nc1
2/8
CN(C(=O)C1(OCc2cc(Cl)c(CCCCCNC(=O)NC[C@H](O)[C@@H](O)[C@H](O)[C@H](O)CO)cc2Cl)CC1)c1ccccc1OC1CC1
7/8

## Input Which measured Number of Mice with Plasma Concentration < LLOQ value corresponds to `O=C([C@@H]1CSCN1Cc1cc(Cl)cc(O)c1Cl)N1CCN(C2CC2)c2ccccc21` ?
## Output 4/8

## Input Param item: `CN(C[C@@H](O)[C@H](O)[C@@H](O)[C@@H](O)CO)C(=O)NCCCCc1cc(Cl)c(CN2CSC[C@H]2C(=O)N2CCN(C3CC3)c3ccccc32)cc1Cl`
## Output 7/7

## Input Param item: `CN(C[C@H](O)[C@@H](O)[C@H](O)[C@H](O)CO)C(=O)CCCCc1cc(Cl)c(CN2CSC[C@H]2C(=O)N2CCN(C3CC3)c3ccccc32)cc1Cl`
## Output 3/8

## Input Param item: `C[C@@H](NC(=O)[C@@H](C)NC(=O)[C@@H](C)NC(=O)CCCCc1cc(Cl)c(CN2CSC[C@H]2C(=O)N2CCN(C3CC3)c3ccccc32)cc1Cl)C(=O)O`
## Output 7/8

----------
Reported EC50 values follow for various molecules
measuredTarget: human TGR5 (Homo sapiens, UniProt Q8TDU6)
Construct: expressed in transfected cells
Sequence (Q8TDU6 whole entry): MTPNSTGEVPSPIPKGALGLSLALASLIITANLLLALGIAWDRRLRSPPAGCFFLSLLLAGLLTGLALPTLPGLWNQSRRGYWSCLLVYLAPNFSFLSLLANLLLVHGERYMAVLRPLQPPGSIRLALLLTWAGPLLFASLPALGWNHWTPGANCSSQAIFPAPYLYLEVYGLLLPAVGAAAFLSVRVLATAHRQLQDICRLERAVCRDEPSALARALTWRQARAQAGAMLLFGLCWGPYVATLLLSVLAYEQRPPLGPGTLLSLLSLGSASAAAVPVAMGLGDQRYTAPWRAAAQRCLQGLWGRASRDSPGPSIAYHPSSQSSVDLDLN
procedureText: Cell-based TGR5 assay, HEK293 cells stably expressing human TGR5, cAMP by HTRF
appliedConditions: HEK293 cells stably expressing human TGR5, 30 min at 37 C, 0.05 nM to 10 μM, read-out: pEC50 Human TGR5 (converted)

CC1(C)C[C@@H](C(=O)N2CCN(C3CC3)c3ccccc32)N(Cc2cc(Cl)ccc2Cl)C1 [Example 19]
1260 to 50100 nM
CN(C[C@H](O)[C@@H](O)[C@H](O)[C@H](O)CO)C(=O)c1ccc(COc2cc(Cl)c(CN3CSC[C@H]3C(=O)N3CCN(C4CC4)c4ccccc43)cc2Cl)cc1 [Example 196]
126 to 1000 nM
O=C(CCCCc1cc(Cl)c(CN2C[S+]([O-])C[C@H]2C(=O)N2CCN(C3CC3)c3ccccc32)cc1Cl)NC[C@H](O)[C@@H](O)[C@H](O)[C@H](O)CO (stereo partly drawn) [Example 221]
126 to 1000 nM
CN(C(=O)C1(OCc2cc(Cl)ccc2Cl)CC1)c1ccccc1OC1CCC1 [Example 72]
< 100 nM
CN(C(=O)C1(OCc2cc(Cl)ccc2Cl)CC1)c1ccccc1OCC1CC1 [Example 40]
< 100 nM

Could you now consider this next molecule?
## Input Which measured EC50 value corresponds to O=C(CCCCc1ccc(Cl)c(CNC2(C(=O)N3CCN(C4CC4)c4ccccc43)CC2)c1)NC[C@H](O)[C@@H](O)[C@H](O)[C@H](O)CO [Example 263] ?
## Output 1260 to 50100 nM
